Assign TGI to each entry below.
# Test system: RXF 393 renal
# Procedure Summary: NCI tumour cell line growth inhibition, 48 h

Some solved cases for reference:
Molecule: Cc1cc(Br)ccc1N=NC1C(=O)ON=C1c1ccccc1 (centres undefined)
TGI: > 100 µM
--
Molecule: O=C(O)OC12CCCCCC1C(=O)C1CCCCC12 (centres undefined)
TGI: > 100 µM
--
Molecule: CC[C@H]1CNC(=O)CC1CC(=O)OC (some centres undefined)
TGI: > 100 µM
--
Molecule: Cc1c(CNc2ccc(Cl)c(Cl)c2Cl)cnc2nc(N)nc(N)c12
TGI: > 55.5 µM
--
Molecule: CC1CC(=O)C(CC(=O)O)[C@H]1C(C(=O)C(=O)Nc1cc(Cl)ccc1Cl)[N+](=O)[O-] (some centres undefined)
TGI: > 100 µM

Working through the 5 molecules below one at a time, give TGI for each.
1. CC(C)=CCN1c2ccccc2[C@@]2(CC=C(C)C)CCN(C)[C@@H]12
2. COc1ccc(C2OC2C(=O)C23CC4CC(CC(C4)C2)C3)cc1 (centres undefined)
3. O=C(O)c1ccc2nc(-c3ccccn3)c(-c3ccccn3)nc2c1
4. FC(F)(F)c1ccc(-c2cnc(-c3nn[nH]n3)nc2NC2CCCCCC2)cc1
5. NCCCc1nonc1C(=O)O

Marked response:
> 100 µM
> 100 µM
> 100 µM
> 10 µM
> 100 µM
